src = PubChem BioAssay AID330

Overview of recorded T/C for various compounds
- Tested on: P388 leukemia ip, CD2F1 mice, survival T/C
- Protocol: NCI In Vivo Anticancer Drug Screen. Data for tumor model P388 Leukemia (intraperitoneal) in CD2F1 (CDF1) mice
- Condition notes: endpoint: median survival time; dose: 200.0 mg/kg/injection; schedule: Q04DX002 (ip); vehicle: saline; higher = longer survival
Toxic doses and inconclusive results are not listed.

# annotated cases, reported T/C shown
>>> observed("C/C=C/N1C(=O)C2C=CC1C(C(C)=O)C2 (centres undefined)")
"98 % of control"
>>> observed("O=C1O/C(=C/c2cc(Cl)c(O)c(Cl)c2)c2ccccc21")
"99 % of control"

Quick one: T/C of C=C1CC2(CCCCC2Cc2ccccc2)OC1=O (centres undefined) ? 101 % of control

Now this one: C=CC1=C(C)c2cc3[n-]c(c(CC(=O)O)c4nc(cc5[n-]c(cc1n2)c(C)c5CC)C(C)=C4C(=O)O)C(CCC(=O)O)C3C.[Pt+2] (centres undefined) 88 % of control

* * *

Overview of recorded T/C for various molecules
- Test system: P388 leukemia ip, CD2F1 mice, survival T/C
- Protocol: NCI In Vivo Anticancer Drug Screen. Data for tumor model P388 Leukemia (intraperitoneal) in CD2F1 (CDF1) mice
- Condition notes: endpoint: median survival time; dose: 200.0 mg/kg/injection; schedule: Q01DX001 (ip); vehicle: saline with Tween-80; higher = longer survival
Inconclusive results and toxic doses are left out.

# annotated cases, reported T/C shown
>>> observed("ClC1=C(Cl)C2(Cl)C3C4CC(C5OC45)C3N1C2(Cl)Cl (centres undefined)")
"103 % of control"
>>> observed("Cc1c(N=Nc2cccc(Cl)c2)c(-c2ccccc2)nn1C(N)=S")
"92 % of control"
>>> observed("CC(C)C[CH2][Ge]([CH2]CC(C)C)([CH2]CC(C)C)[CH2]CC(C)C")
"94 % of control"
>>> observed("O=C(O)Cc1c[nH]c2c(Cl)ccc(Cl)c12")
"100 % of control"
>>> observed("Nc1nc2c(cnn2C2CCCO2)c(=O)[nH]1 (centres undefined)")
"106 % of control"
>>> observed("CC12c3ccccc3CCN1C(c1ccccc1)=NN2c1ccccc1 (centres undefined)")
"103 % of control"
>>> observed("CCOC(=O)N1C(C)=CC=C/C1=C/C=C(C#N)C#N")
"90 % of control"
>>> observed("CCN(CC)Cc1cc(N=Nc2ccc(N(C)C)cc2)ccc1O")
"88 % of control"

Quick one: T/C of COc1cc2cc(-c3ccc(OC(C)C)c(OC)c3)[n+](C)cc2cc1OC ? 94 % of control

* * *

- Test system: P388 leukemia ip, CD2F1 mice, survival T/C
- Protocol: NCI In Vivo Anticancer Drug Screen. Data for tumor model P388 Leukemia (intraperitoneal) in CD2F1 (CDF1) mice
- Condition notes: endpoint: median survival time; dose: 25.0 mg/kg/injection; schedule: Q01DX009 (ip); vehicle: Klucel (hydroxypropylcellulose) (HPC); higher = longer survival
Inconclusive results and toxic doses are left out.
Overview of recorded T/C for various compounds

>>> observed("CCSC(=Nc1nc2ccc([N+](=O)[O-])cc2s1)SCC")
"98 % of control"
>>> observed("CCOC(=O)Nc1c(C)cc(C)cc1C")
"99 % of control"
>>> observed("O=C(Nc1nccs1)Nc1ccccc1C(F)(F)F")
"115 % of control"

Quick one: T/C of CN1C(=O)C2C3C=CC(C2C1=O)C1C2C(=O)N(C)C(=O)C2C31 (centres undefined) ? 100 % of control

Now this one: OCC1OC(n2cnc3c(NO)ncnc32)CC1O (centres undefined) 112 % of control

Now this one: COc1cc(O)c2c(c1)C(=O)c1cc3c(c(O)c1C2=O)C(O)C(OC)C(C)(O)C3=O (centres undefined) 98 % of control

Now this one: O=S1(=O)OCc2ccccc21 100 % of control

Now this one: ClC1(Cl)C(=C=C2C3CC4CC(C3)CC2C4)C12C1CC3CC(C1)CC2C3 (centres undefined) 100 % of control
